target: recombinant human ACC1 (Homo sapiens, UniProt Q13085); construct: a cDNA encoding human ACC1 (1-2346) was cloned from human liver cDNA library (BioChain); myc-tag (C); His-tag (C); made in house; host or cells: Sf-9 insect cells (baculovirus, FlashBACGOLD); test: Measurement of inhibitory activity on human ACC1 (MALDI-TOF MS, acetyl CoA to malonyl CoA conversion); type: biochemical
pIC50: −log10 of the molar value.
outcome-measure: pIC50

smi=CCNC(=O)c1cc(C(=O)N[C@@H](C)/C=C/c2cnn(Cc3ccc(OCC4CC4)c(Cl)c3Cl)c2)ccn1 target_under_test="recombinant human ACC1 (Homo sapiens, UniProt Q13085)" outcome_measure=pIC50 result="< 4.00"
smi=CCCc1ccc(Oc2ccc(/C=C/[C@H](C)NC(=O)CN)cn2)c(Cl)c1 target_under_test="recombinant human ACC1 (Homo sapiens, UniProt Q13085)" outcome_measure=pIC50 result="< 4.00"
smi=CCOc1ccc(Cc2ccc(/C=C/[C@H](C)NC(C)=O)cn2)c(Cl)c1 target_under_test="recombinant human ACC1 (Homo sapiens, UniProt Q13085)" outcome_measure=pIC50 result="< 4.00"
smi=CCCc1ccc(Oc2ccc(/C=C/[C@H](C)NC(C)=O)cn2)c(OC)c1 target_under_test="recombinant human ACC1 (Homo sapiens, UniProt Q13085)" outcome_measure=pIC50 result="< 4.00"

====

target: recombinant human ACC2 (Homo sapiens); construct: a cDNA encoding human ACC2 (27-2458) was cloned from human kidney cDNA library (Clontech); His-tag (N); made in house; host or cells: Sf-9 insect cells (Bac-to-Bac baculovirus); test: Measurement of inhibitory activity on human ACC2 (MALDI-TOF MS, acetyl CoA to malonyl CoA conversion); assay type: biochemical; conditions: inhibition activity on human ACC2, Table 84; read-out: IC50
Use IC50 to assign classes; range list: A = under 10 nM, B = from 10 nM up to 50 nM, C = 50 nM and over

compound=CC(=O)N[C@@H](C)/C=C/c1ccc(Oc2ccc3sc(C)nc3c2Cl)nc1 label_class=B
compound=CSc1ncc(Oc2ccc(/C=C/[C@H](C)NC(C)=O)cn2)cn1 label_class=C
compound=CC(=O)N[C@@H](C)/C=C/c1ccc(Oc2cc3c(cc2Cl)OC(C)(C)C3)nc1 label_class=B
compound=CC(=O)N[C@@H](C)/C=C/c1ccc(Oc2ccc3nc(C(F)(F)F)sc3c2Cl)nc1 label_class=A
compound=CC(=O)N[C@@H](C)/C=C/c1cnc(Oc2ccc3nc(C(F)(F)F)sc3c2Cl)cn1 label_class=A
compound=CC(=O)N[C@@H](C)/C=C/c1ccc(Oc2ccc3c(c2Cl)CCC3)nc1 label_class=B
compound="CC(=O)N[C@@H](C)/C=C/c1ccc(Oc2ccc(C3(C)CC3(F)F)cc2Cl)nc1 (stereo partly shown)" label_class=C
compound=CC(=O)N[C@@H](C)/C=C/c1ccc(Oc2ccc(OCC3CC3)cc2Cl)cn1 label_class=B
compound=CC(=O)N[C@@H](C)/C=C/c1ccc(Oc2ccc3c(c2)OCCC3)nc1 label_class=C
compound=CC(=O)N[C@@H](C)/C=C/c1ccc(Oc2cnc(N3CCC(F)(F)CC3)nc2)nc1 label_class=B
compound=CCc1nc2ccc(Oc3ccc(/C=C/[C@H](C)NC(C)=O)cn3)c(Cl)c2s1 label_class=A
compound=CC(=O)N[C@@H](C)/C=C/c1ccc(Oc2ccc3nc(C(C)C)oc3c2)nc1 label_class=A
compound=CC(=O)N[C@@H](C)/C=C/c1ccc(Oc2ccc3nc(C(C)(C)C)sc3c2Cl)nc1 label_class=A
compound=CC(=O)N[C@@H](C)/C=C/c1ccc(Oc2ccc(-c3ccccc3)c(Cl)c2)nc1 label_class=A
compound=CC(=O)N[C@@H](C)/C=C/c1ccc(Oc2ccc3nc(C)oc3c2)nc1 label_class=C
compound=CC(=O)N[C@@H](C)/C=C/c1ccc(Oc2ccc3c(c2)OC(F)(F)O3)nc1 label_class=C

====

Reported values of IC50 for individual entries
molecular target: recombinant human ACC2 (Homo sapiens); construct: a cDNA encoding human ACC2 (27-2458) was cloned from human kidney cDNA library (Clontech); His-tag (N); made in house; host or cells: Sf-9 insect cells (Bac-to-Bac baculovirus); assay: Measurement of inhibitory activity on human ACC2 (MALDI-TOF MS, acetyl CoA to malonyl CoA conversion); type: biochemical; details: inhibition activity on human ACC2, Table 79; read-out: IC50
outcome-measure: IC50 (µM)

smi=CC(=O)N[C@@H](C)/C=C/c1ccc(Oc2ccc(OCC3CC3)nc2)nc1 target_under_test="recombinant human ACC2 (Homo sapiens)" outcome_measure=IC50 result=0.012
smi=CC(=O)N[C@@H](C)/C=C/c1cnn(CCc2ccc(OCC3CC3)cc2)c1 target_under_test="recombinant human ACC2 (Homo sapiens)" outcome_measure=IC50 result=5.7
smi=C[C@@H](/C=C/c1cnc(Oc2ccc(OCC3CC3)cc2Cl)s1)NC(=O)C1(C)CC1 target_under_test="recombinant human ACC2 (Homo sapiens)" outcome_measure=IC50 result=0.048
smi=CC(=O)N[C@@H](C)/C=C/c1ccc(Oc2ccc(OCC3CC3)cc2Cl)cc1 target_under_test="recombinant human ACC2 (Homo sapiens)" outcome_measure=IC50 result=0.0022

====

molecular target: recombinant human ACC2 (Homo sapiens, UniProt O00763); construct: a cDNA encoding human ACC2 (27-2458) was cloned from human kidney cDNA library (Clontech); His-tag (N); made in house; host or cells: Sf-9 insect cells (Bac-to-Bac baculovirus); assay: Measurement of inhibitory activity on human ACC2 (MALDI-TOF MS, acetyl CoA to malonyl CoA conversion); type: biochemical
Sequence (O00763 27-2458): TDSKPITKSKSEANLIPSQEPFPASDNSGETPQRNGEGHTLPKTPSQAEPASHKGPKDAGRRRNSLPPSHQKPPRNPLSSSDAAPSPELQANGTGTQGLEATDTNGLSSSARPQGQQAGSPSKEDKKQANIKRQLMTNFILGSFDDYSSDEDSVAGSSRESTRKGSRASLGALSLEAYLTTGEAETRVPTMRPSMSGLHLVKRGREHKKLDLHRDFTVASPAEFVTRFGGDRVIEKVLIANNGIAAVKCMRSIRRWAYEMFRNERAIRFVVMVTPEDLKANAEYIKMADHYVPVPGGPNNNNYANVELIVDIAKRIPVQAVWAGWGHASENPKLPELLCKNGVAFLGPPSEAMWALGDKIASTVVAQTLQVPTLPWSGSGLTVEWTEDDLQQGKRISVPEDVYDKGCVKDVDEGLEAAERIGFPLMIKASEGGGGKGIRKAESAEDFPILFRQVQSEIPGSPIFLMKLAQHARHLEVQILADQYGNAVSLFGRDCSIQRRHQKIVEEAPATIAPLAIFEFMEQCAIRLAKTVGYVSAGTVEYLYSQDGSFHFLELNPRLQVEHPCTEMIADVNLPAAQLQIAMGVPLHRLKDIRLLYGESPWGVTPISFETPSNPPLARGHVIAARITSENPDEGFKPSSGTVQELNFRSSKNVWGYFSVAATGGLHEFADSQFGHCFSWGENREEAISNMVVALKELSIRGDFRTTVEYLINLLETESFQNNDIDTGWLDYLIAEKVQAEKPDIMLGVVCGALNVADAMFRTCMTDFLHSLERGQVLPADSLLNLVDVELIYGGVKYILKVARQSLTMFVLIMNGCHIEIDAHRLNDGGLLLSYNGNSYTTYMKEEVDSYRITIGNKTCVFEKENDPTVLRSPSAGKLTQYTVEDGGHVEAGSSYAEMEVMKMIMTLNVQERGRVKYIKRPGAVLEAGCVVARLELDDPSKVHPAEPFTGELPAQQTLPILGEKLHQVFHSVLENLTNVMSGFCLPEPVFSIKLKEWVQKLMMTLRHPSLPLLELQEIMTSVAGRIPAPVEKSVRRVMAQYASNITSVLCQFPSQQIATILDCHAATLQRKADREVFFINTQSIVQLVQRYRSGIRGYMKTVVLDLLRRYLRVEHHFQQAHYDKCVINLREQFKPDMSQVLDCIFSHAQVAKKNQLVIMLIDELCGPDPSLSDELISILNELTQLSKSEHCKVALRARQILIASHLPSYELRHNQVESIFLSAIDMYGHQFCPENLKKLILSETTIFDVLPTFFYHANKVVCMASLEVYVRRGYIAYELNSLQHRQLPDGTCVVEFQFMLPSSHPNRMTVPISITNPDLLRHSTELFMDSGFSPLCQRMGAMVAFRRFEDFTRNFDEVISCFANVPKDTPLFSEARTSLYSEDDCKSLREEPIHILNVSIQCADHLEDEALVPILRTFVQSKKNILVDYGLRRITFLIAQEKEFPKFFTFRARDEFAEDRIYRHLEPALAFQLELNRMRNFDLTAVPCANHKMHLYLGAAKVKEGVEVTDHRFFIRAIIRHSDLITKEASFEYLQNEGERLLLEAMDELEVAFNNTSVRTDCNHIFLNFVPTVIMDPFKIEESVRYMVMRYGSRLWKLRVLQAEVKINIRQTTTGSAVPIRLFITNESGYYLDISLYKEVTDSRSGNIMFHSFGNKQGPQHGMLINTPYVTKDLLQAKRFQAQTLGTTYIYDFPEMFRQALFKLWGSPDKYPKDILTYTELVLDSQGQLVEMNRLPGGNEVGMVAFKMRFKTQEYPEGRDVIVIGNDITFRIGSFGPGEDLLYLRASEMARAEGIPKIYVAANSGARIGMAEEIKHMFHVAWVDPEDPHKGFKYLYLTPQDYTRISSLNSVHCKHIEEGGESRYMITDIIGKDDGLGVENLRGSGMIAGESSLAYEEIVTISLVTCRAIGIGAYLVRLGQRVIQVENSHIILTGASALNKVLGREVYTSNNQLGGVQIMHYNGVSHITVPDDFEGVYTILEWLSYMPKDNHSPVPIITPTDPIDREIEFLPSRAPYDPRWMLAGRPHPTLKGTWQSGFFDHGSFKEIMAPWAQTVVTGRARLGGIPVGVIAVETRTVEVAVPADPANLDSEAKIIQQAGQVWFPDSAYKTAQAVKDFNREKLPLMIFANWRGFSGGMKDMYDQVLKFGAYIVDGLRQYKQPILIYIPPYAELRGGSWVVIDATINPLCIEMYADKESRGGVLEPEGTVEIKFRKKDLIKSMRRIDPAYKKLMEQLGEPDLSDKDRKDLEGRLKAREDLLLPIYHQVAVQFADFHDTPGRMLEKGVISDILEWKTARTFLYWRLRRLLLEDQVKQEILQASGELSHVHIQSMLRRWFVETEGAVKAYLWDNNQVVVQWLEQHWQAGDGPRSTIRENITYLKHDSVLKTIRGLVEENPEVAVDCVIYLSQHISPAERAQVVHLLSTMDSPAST
pIC50: −log10 of the molar value.
Each entry below carries its recorded pIC50.
outcome-measure: pIC50

compound="CC(=O)N[C@@H](C)/C=C/c1ccc(Oc2ccc(-c3ncccn3)cc2Cl)nc1 [Compound I-418]" target_under_test="recombinant human ACC2 (Homo sapiens, UniProt O00763)" result=7.01
compound="CC(=O)N[C@@H](C)/C=C/c1ccc(Oc2ccc3nc(C)sc3c2)nc1 [Compound I-425]" target_under_test="recombinant human ACC2 (Homo sapiens, UniProt O00763)" result=7.40
compound="CCC1(c2ccc(Oc3ccc(/C=C/[C@H](C)NC(C)=O)cn3)c(Cl)c2)COC1 [Compound I-400]" target_under_test="recombinant human ACC2 (Homo sapiens, UniProt O00763)" result=5.49
compound="CCCc1ccc(Oc2ccc(/C=C/[C@H](C)NC(C)=O)cn2)cc1C#N [Compound I-404]" target_under_test="recombinant human ACC2 (Homo sapiens, UniProt O00763)" result=6.72
compound="CCCc1ccc(Oc2ccc(/C=C/[C@H](C)NC(=O)CN)cn2)c(Cl)c1 [Compound I-390]" target_under_test="recombinant human ACC2 (Homo sapiens, UniProt O00763)" result=6.27
compound="CC(=O)N[C@@H](C)/C=C/c1ccc(Oc2ccc(-c3nc4ccccc4s3)cc2Cl)nc1 [Compound I-415]" target_under_test="recombinant human ACC2 (Homo sapiens, UniProt O00763)" result=6.92
compound="CC(=O)N[C@@H](C)/C=C/c1ccc(Oc2ccc(-c3ncns3)cc2Cl)nc1 [Compound I-420]" target_under_test="recombinant human ACC2 (Homo sapiens, UniProt O00763)" result=6.92
compound="CCCc1ccc(Oc2ccc(/C=C/[C@H](C)NC(C)=O)cn2)c(C#N)c1 [Compound I-403]" target_under_test="recombinant human ACC2 (Homo sapiens, UniProt O00763)" result=6.35
compound="COc1cc(Oc2ncc(/C=C/[C@H](C)NC(C)=O)cn2)c(Cl)cc1OCC1CC1 [Compound I-407]" target_under_test="recombinant human ACC2 (Homo sapiens, UniProt O00763)" result=5.68

====

// values below are reported IC50
target: recombinant human ACC2 (Homo sapiens, UniProt O00763); construct: a cDNA encoding human ACC2 (27-2458) was cloned from human kidney cDNA library (Clontech); His-tag (N); made in house; host or cells: Sf-9 insect cells (Bac-to-Bac baculovirus); assay: Measurement of inhibitory activity on human ACC2 (MALDI-TOF MS, acetyl CoA to malonyl CoA conversion); assay type: biochemical; conditions: inhibition activity on human ACC2, Table 82; read-out: IC50
outcome-measure: IC50 (nM)

molecule=CCCc1ncc(Oc2ccc(/C=C/[C@H](C)NC(C)=O)cn2)cc1C outcome_measure=IC50 result=280
molecule=CC(=O)N[C@@H](C)/C=C/c1ccc(Oc2ccc(-c3cccc(C)c3)cc2Cl)nc1 outcome_measure=IC50 result=46
molecule=CCNC(=O)c1cc(C(=O)N[C@@H](C)/C=C/c2cnn(Cc3c(F)cc(OCC4CC4)cc3F)c2)ccn1 outcome_measure=IC50 result=51
molecule=CC(=O)N[C@@H](C)/C=C/c1ccc(Oc2ccc(CC(C)C)cc2Cl)nc1 outcome_measure=IC50 result=29
molecule=CCCc1cc(F)c(Oc2ccc(/C=C/[C@H](C)NC(C)=O)cn2)c(Cl)c1 outcome_measure=IC50 result=33
molecule=CCCc1ccc(Oc2ccc(/C=C/[C@H](C)NC(=O)COC(C)=O)cn2)c(Cl)c1 outcome_measure=IC50 result=57
molecule=CC(=O)N[C@@H](C)/C=C/c1ccc(Oc2ccc(-c3cnoc3)cc2Cl)nc1 outcome_measure=IC50 result=6600
molecule=CCOc1ccc(NCc2ccc(/C=C/[C@H](C)NC(C)=O)cn2)cc1 outcome_measure=IC50 result=5400
molecule=CC(=O)N[C@@H](C)/C=C/c1ccc(Oc2ccc(CC(C)(C)C)cc2Cl)nc1 outcome_measure=IC50 result=60
molecule="CCC(F)c1ccc(Oc2ccc(/C=C/[C@H](C)NC(C)=O)cn2)c(Cl)c1 (some centres unmarked)" outcome_measure=IC50 result=25
molecule=CC(=O)N[C@@H](C)/C=C/c1ccc(Oc2ccc(-c3ccc(C#N)cc3)c(Cl)c2)nc1 outcome_measure=IC50 result=39
molecule="CCOc1ccc(Oc2ccc(/C=C(\\F)C(C)NC(C)=O)cn2)c(Cl)c1 (centres unmarked)" outcome_measure=IC50 result=10
molecule=CC(=O)N[C@@H](C)/C=C/c1ccc(Oc2ccc(C(=O)NCC3CC3)cc2Cl)nc1 outcome_measure=IC50 result=440
molecule=CC(=O)N[C@@H](C)/C=C/c1ccc(Oc2ccc(Cl)c(Cl)c2)nc1 outcome_measure=IC50 result=33
molecule=CCSc1ccc(Oc2ccc(/C=C/[C@H](C)NC(C)=O)cn2)c(Cl)c1 outcome_measure=IC50 result=9.1
molecule=CC(=O)N[C@@H](C)/C=C/c1ccc(Oc2ccc(C3(C)CC3)cc2Cl)nc1 outcome_measure=IC50 result=24
molecule=CCNC(=O)c1cc(C(=O)N[C@@H](C)/C=C/c2cnn(Cc3ccc(OCC4CC4)cc3F)c2)ccn1 outcome_measure=IC50 result=67
molecule=CC(=O)N[C@@H](C)/C=C/c1ccc(Oc2ccc(C3=CCCC3)cc2Cl)nc1 outcome_measure=IC50 result=42
molecule=CC(=O)N[C@@H](C)/C=C/c1ccc(Oc2ccc(C3=CCN(C)CC3)cc2Cl)nc1 outcome_measure=IC50 result=2600
molecule=CC(=O)N[C@@H](C)/C=C/c1ccc(Oc2ccc(C(C)(F)F)cc2Cl)nc1 outcome_measure=IC50 result=35
molecule=CC(=O)N[C@@H](C)/C=C/c1cnc(Oc2ccc(OCC3CC3)cc2Cl)c(Cl)c1 outcome_measure=IC50 result=15
molecule=CCCCc1ccc(Oc2ccc(/C=C/[C@H](C)NC(C)=O)cn2)c(Cl)c1 outcome_measure=IC50 result=23
molecule="CC(=O)N[C@@H](C)/C=C/c1ccc(Oc2ccc(C(C)O)cc2Cl)nc1 (some centres unmarked)" outcome_measure=IC50 result=1100
molecule=CC(=O)N[C@@H](C)/C=C/c1ccc(Oc2ccc(-c3ccccc3C#N)cc2Cl)nc1 outcome_measure=IC50 result=300
molecule=CCc1ccc(Oc2ccc(/C=C/[C@H](C)NC(C)=O)cn2)c(Cl)c1 outcome_measure=IC50 result=91
molecule=CCOc1cc(F)c(Oc2ccc(/C=C/[C@H](C)NC(C)=O)cn2)c(Cl)c1 outcome_measure=IC50 result=36
molecule=CC(=O)N[C@@H](C)/C=C/c1ccc(Oc2ccc(-c3ccccn3)cc2Cl)nc1 outcome_measure=IC50 result=120
molecule=CC(=O)N[C@@H](C)/C=C/c1ccc(Oc2ccc(C3=CCC4(CC3)CC4)cc2Cl)nc1 outcome_measure=IC50 result=19
molecule=CCCc1ccc(Oc2ccc(/C=C/[C@H](C)NC(=O)C(=O)OCC)cn2)c(Cl)c1 outcome_measure=IC50 result=780
molecule="CCC(O)c1ccc(Oc2ccc(/C=C/[C@H](C)NC(C)=O)cn2)c(Cl)c1 (some centres unmarked)" outcome_measure=IC50 result=230
molecule=CC(=O)N[C@@H](C)/C=C/c1ccc(Oc2ccc(-c3cccc(C#N)c3)cc2Cl)nc1 outcome_measure=IC50 result=440
molecule=CC(=O)N[C@@H](C)/C=C/c1ccc(Oc2ccc(C3=CCCCC3)cc2Cl)nc1 outcome_measure=IC50 result=18
